- ASSAYED_TARGET: Beta sliding clamp (Escherichia coli (strain K12))
- PROTOCOL_NOTES: Binding affinity to Escherichia coli DNA sliding clamp protein at 298K by isothermal titration calorimetry
EXPERIMENTAL_READOUT: Kd (µM)

COMPOUND_STRUCTURE | MEASUREMENT
O=C(Cn1c2c(c3cc(Br)ccc31)CC[C@@H](C(=O)O)C2)N[C@H](Cc1ccccc1)C(=O)O | 13

(I) O=C(Cn1c2c(c3cc(Br)ccc31)CC[C@@H](C(=O)O)C2)N[C@@H](Cc1ccccc1)C(=O)O
(II) O=C(O)CNC(=O)Cn1c2c(c3cc(Br)ccc31)CC[C@@H](C(=O)O)C2
(III) O=C(O)CNC(=O)Cn1c2c(c3cc(Cl)ccc31)CC[C@@H](C(=O)O)C2
Query block: Let's sort these by Kd, smallest first. Go ahead? I would appreciate it if you listed the labels in the requested order.
Result block: I, II, III

###

- ASSAYED_TARGET: Beta sliding clamp (Escherichia coli (strain K12), UniProt P0A988)
- Sequence (P0A988 whole entry): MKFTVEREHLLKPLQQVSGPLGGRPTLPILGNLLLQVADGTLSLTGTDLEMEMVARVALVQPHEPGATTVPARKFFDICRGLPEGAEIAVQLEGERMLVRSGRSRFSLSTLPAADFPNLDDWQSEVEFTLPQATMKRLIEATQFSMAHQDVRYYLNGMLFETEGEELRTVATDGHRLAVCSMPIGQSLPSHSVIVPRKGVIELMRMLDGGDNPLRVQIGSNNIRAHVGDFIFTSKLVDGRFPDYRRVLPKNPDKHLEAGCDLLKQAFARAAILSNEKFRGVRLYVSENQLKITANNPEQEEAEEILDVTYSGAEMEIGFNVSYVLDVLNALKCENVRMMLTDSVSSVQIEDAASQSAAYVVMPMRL
- PROTOCOL_NOTES: Inhibition of Escherichia coli DNA sliding clamp protein using N-fluorescein (FAM)-QLDLF-OH tracer by fluorescence polarization assay
pKi: −log10 of the molar value.
EXPERIMENTAL_READOUT: pKi

COMPOUND_STRUCTURE | pKi
O=C(O)[C@@H]1CCc2c([nH]c3ccc(Cl)cc23)C1 | 4.13

(I) NC(=O)CNC(=O)Cn1c2c(c3cc(Br)ccc31)CC[C@@H](C(=O)O)C2
(II) O=C(O)[C@H]1CCc2c([nH]c3ccc(Br)cc23)C1
(III) NC(=O)Cn1c2c(c3cc(Cl)ccc31)CC[C@H](C(=O)O)C2
Query block: Ranking field: pKi; order: falling. I would appreciate it if you listed the labels in the requested order.
Result block: I, II, III
(I: 4.02, II: 3.74, III: 3.31)

###

- ASSAYED_TARGET: Beta sliding clamp (Escherichia coli (strain K12))
- PROTOCOL_NOTES: Inhibition of Escherichia coli DNA sliding clamp protein using N-fluorescein (FAM)-QLDLF-OH tracer by fluorescence polarization assay
EXPERIMENTAL_READOUT: IC50 (µM)

In the examples that follow, each entry is paired with its recorded IC50.
COMPOUND_STRUCTURE | EXPERIMENTAL_READOUT | UNITS | MEASUREMENT
NC(=O)c1ccc(CNC(=O)Cn2c3c(c4cc(Br)ccc42)CC[C@@H](C(=O)O)C3)cc1 | IC50 | µM | 64
O=C(O)[C@@H]1CCc2c([nH]c3ccc(Cl)cc23)C1 | IC50 | µM | 134

(A) O=C(O)[C@@H]1CCc2c([nH]c3ccc(I)cc23)C1
(B) CC(C)C[C@H](NC(=O)Cn1c2c(c3cc(Br)ccc31)CC[C@@H](C(=O)O)C2)C(=O)O
(C) CC(C)(C)OC(=O)NCCCC[C@@H](NC(=O)Cn1c2c(c3cc(Br)ccc31)CC[C@@H](C(=O)O)C2)C(=O)O
(D) O=C(Cn1c2c(c3cc(Br)ccc31)CC[C@@H](C(=O)O)C2)N[C@H](Cc1ccccc1)C(=O)O
Query block: Let's sort these by IC50, smallest first. Go ahead? I would appreciate it if you listed the labels in the requested order.
Result block: D, B, C, A
(D: 30 µM, B: 48 µM, C: 115 µM, A: 175 µM)

###

- ASSAYED_TARGET: Beta sliding clamp (Escherichia coli (strain K12), UniProt P0A988)
- PROTOCOL_NOTES: Inhibition of Escherichia coli DNA sliding clamp protein using N-fluorescein (FAM)-QLDLF-OH tracer by fluorescence polarization assay
EXPERIMENTAL_READOUT: Ki (µM)

COMPOUND_STRUCTURE | Ki (µM)
O=C(Cn1c2c(c3cc(Br)ccc31)CC[C@@H](C(=O)O)C2)NCC1CCNCC1 | 116

(A) O=C(O)[C@H]1CCc2c([nH]c3ccc(Cl)cc23)C1
(B) NC(=O)Cn1c2c(c3cc(Br)ccc31)CC[C@H](C(=O)O)C2
Query block: Returns: the argument ( A or B ) having the larger Ki. Reply with the label of the item you choose.
Result block: A
(A: 246 µM, B: 158 µM)

(P) NC(=O)Cc1ccc(NC(=O)Cn2c3c(c4cc(Cl)ccc42)CC[C@@H](C(=O)O)C3)cc1
(Q) O=C(Cn1c2c(c3cc(Br)ccc31)CC[C@@H](C(=O)O)C2)N[C@H](Cc1ccccc1)C(=O)O
Query block: Returns: the argument ( P or Q ) having the larger Ki. Reply with the label of the item you choose.
Result block: P
(P: 201 µM, Q: 17 µM)

(I) NC(=O)CN1CCC(NC(=O)Cn2c3c(c4cc(Br)ccc42)CC[C@@H](C(=O)O)C3)CC1
(II) CC(C)(C)OC(=O)N1CCC(CNC(=O)Cn2c3c(c4cc(Br)ccc42)CC[C@@H](C(=O)O)C3)CC1
Query block: Returns: the argument ( I or II ) having the larger Ki. Reply with the label of the item you choose.
Result block: I
(I: 171 µM, II: 83 µM)

(A) O=C(Cn1c2c(c3cc(Br)ccc31)CC[C@@H](C(=O)O)C2)N[C@@H](Cc1ccccc1)C(=O)O
(B) NC(=O)c1ccc(CNC(=O)Cn2c3c(c4cc(Br)ccc42)CC[C@@H](C(=O)O)C3)cc1
Query block: Which has the smaller recorded Ki, A or B ? Reply with the label of the item you choose.
Result block: A

###

- ASSAYED_TARGET: Beta sliding clamp (Escherichia coli (strain K12))
- PROTOCOL_NOTES: Inhibition of Escherichia coli DNA sliding clamp protein using N-fluorescein (FAM)-QLDLF-OH tracer by fluorescence polarization assay
pKi: −log10 of the molar value.
EXPERIMENTAL_READOUT: pKi

In the examples that follow, each entry is paired with its recorded pKi.
COMPOUND | pKi
O=C(O)[C@@H]1CCc2c([nH]c3ccc(I)cc23)C1 | 4.01
O=C(O)C1CCc2c([nH]c3ccc(Cl)cc23)C1 (racemic) | 3.78
CC(C)C[C@H](NC(=O)Cn1c2c(c3cc(Br)ccc31)CC[C@@H](C(=O)O)C2)C(=O)O | 4.57

(P) O=C(O)[C@@H]1CCc2c([nH]c3ccc(F)cc23)C1
(Q) O=C(O)[C@@H]1CCc2c([nH]c3ccc(Br)cc23)C1
Query block: Which has the smaller recorded pKi, P or Q ? Reply with the label of the item you choose.
Result block: P
(P: 3.34, Q: 4.06)

(A) CC(C)(C)OC(=O)NCCCC[C@@H](NC(=O)Cn1c2c(c3cc(Br)ccc31)CC[C@@H](C(=O)O)C2)C(=O)O
(B) O=C(O)CNC(=O)Cn1c2c(c3cc(Br)ccc31)CC[C@@H](C(=O)O)C2
(C) NC(=O)Cn1c2c(c3cc(Br)ccc31)CC[C@@H](C(=O)O)C2
Query block: Let's sort these by pKi, smallest first. Go ahead? I would appreciate it if you listed the labels in the requested order.
Result block: C, A, B
(C: 3.86, A: 4.19, B: 4.96)

(P) O=C(O)CNC(=O)Cn1c2c(c3cc(Cl)ccc31)CC[C@@H](C(=O)O)C2
(Q) NC(=O)Cn1c2c(c3cc(Cl)ccc31)CC[C@@H](C(=O)O)C2
Query block: Returns: the argument ( P or Q ) having the larger pKi. Reply with the label of the item you choose.
Result block: P
(P: 4.33, Q: 3.69)

###

- ASSAYED_TARGET: Beta sliding clamp (Escherichia coli (strain K12), UniProt P0A988)
- PROTOCOL_NOTES: Inhibition of Escherichia coli DNA sliding clamp protein using N-fluorescein (FAM)-QLDLF-OH tracer by fluorescence polarization assay
pIC50: −log10 of the molar value.
EXPERIMENTAL_READOUT: pIC50

COMPOUND_STRUCTURE | EXPERIMENTAL_READOUT | MEASUREMENT
NC(=O)Cn1c2c(c3cc(Br)ccc31)CC[C@@H](C(=O)O)C2 | pIC50 | 3.61
O=C(Cn1c2c(c3cc(Br)ccc31)CC[C@@H](C(=O)O)C2)NCC1CCNCC1 | pIC50 | 3.68
O=C(O)[C@@H]1CCc2c([nH]c3ccc(Br)cc23)C1 | pIC50 | 3.80

###

This listing pairs compounds with measured IC50.
- ASSAYED_TARGET: Beta sliding clamp (Escherichia coli (strain K12), UniProt P0A988)
- PROTOCOL_NOTES: Inhibition of Escherichia coli DNA sliding clamp protein using N-fluorescein (FAM)-QLDLF-OH tracer by fluorescence polarization assay

COMPOUND | MEASUREMENT
OCC1CCc2c([nH]c3ccc(Cl)cc23)C1 (racemic) | > 1000 µM

Query block: Short answer please: IC50, Beta sliding clamp (Escherichia coli (strain K12), UniProt P0A988), entry NC(=O)C1CCc2c([nH]c3ccc(Cl)cc23)C1 (racemic)
Result block: > 1000 µM

Query block: Short answer please: IC50, Beta sliding clamp (Escherichia coli (strain K12), UniProt P0A988), entry COC(=O)C1CCc2c([nH]c3ccc(Cl)cc23)C1 (racemic)
Result block: > 1000 µM

Cited source: ChEMBL document CHEMBL3576851
